Measured values drawn from PubChem BioAssay (NCI) for this set.

Test system: MALME-3M melanoma
method-summary: NCI-60 one-dose screen, 48 h (100 = growth as untreated, 0 = no growth, -100 = all killed)
experimental-parameters: 10 µM unless noted
Compounds without any hit were thinned out: in the full panel of roughly 83,000, 20% have a hit.
We use 90% as the dividing line for growth: on or above the line is condition met, below is condition not met.

The following compounds have reported results that may help.
{"compound": "O=C1C(c2c(O)[nH]c3ncccc23)=Nc2ccccc21", "study-system": "MALME-3M melanoma", "class-name": "condition met"}
{"compound": "C=C(c1ccc(C(=O)O)c(F)c1)c1cc2c(cc1C)C(C)(C)C=CC2(C)C", "study-system": "MALME-3M melanoma", "class-name": "condition not met"}
{"compound": "O=c1n(C2OC(CO)C(O)C2O)ccc2nccn12 (centres undefined)", "study-system": "MALME-3M melanoma", "class-name": "condition met"}
{"compound": "C/C=C(/C)C(=O)O[C@@H]1CC(C)(C)CC2C34OC(=O)[C@@]21CC[C@@]3(C)[C@]1(C)CCC2C(C)(C)C(=O)CC[C@]2(C)C1C[C@@H]4O (some centres undefined)", "study-system": "MALME-3M melanoma", "class-name": "condition not met"}
{"compound": "Cc1csc(Nc2nc(-c3cccc(Cl)c3)nc(C(Cl)(Cl)Cl)n2)n1", "study-system": "MALME-3M melanoma", "class-name": "condition met"}
{"compound": "Oc1cccc(-c2nc(-c3n[nH]c(=S)n3-c3ccccc3)cc3c2[nH]c2ccccc23)c1", "study-system": "MALME-3M melanoma", "class-name": "condition not met"}
{"compound": "O=c1c2cccc3c(N4CCOCC4)ccc(c32)c2nc3ccccc3n12", "study-system": "MALME-3M melanoma", "class-name": "condition met"}

Moving on to another compound below.
Query string: Hi, just wondering whether `CN1CCN(Cc2ccc(NC(=O)c3cncc(C#Cc4c(N)ncc5cc(F)ccc45)c3)cc2C(F)(F)F)CC1` shows growth of 90% or higher.
Result string: condition not met
